Where do the numbers come from? From the supplement of paper PMC7595190.

test system: CMK; test: CellTox Green cytotoxicity fluorescence relative to DMSO vehicle (fold of vehicle RFU); higher = more cell death (loss of membrane integrity), active = 2 or more; conditions: 1 µM; 48 h
reported metric: CellTox Green cytotoxicity fluorescence
Lab note: record the figure alone, no unit after it.

Past entries and their recorded results:
[
  {
    "compound": "Nc1cccc2c1CN(C1CCC(=O)NC1=O)C2=O (stereo not drawn) [Lenalidomide]",
    "tested target": "CMK",
    "value reported": 0.969
  },
  {
    "compound": "COc1ccc(CCNCc2ccc(OCc3ccc(Cl)nc3)c(OC)c2)cc1OC",
    "tested target": "CMK",
    "value reported": 0.968
  },
  {
    "compound": "CN(C)CC[C@H](CSc1ccccc1)Nc1ccc(S(=O)(=O)NC(=O)c2ccc(N3CCN(Cc4ccccc4-c4ccc(Cl)cc4)CC3)cc2)cc1[N+](=O)[O-]",
    "tested target": "CMK",
    "value reported": 1.67
  }
]

Now look at this entry.
[in] Provide measured CellTox Green cytotoxicity fluorescence value, entry: `COc1nc(OCc2cccc(-c3ccccc3)c2C)ccc1CNCCNC(C)=O`
[out] 0.983

====

tested on: Kasumi-1; assay: CellTox Green cytotoxicity fluorescence relative to DMSO vehicle (fold of vehicle RFU); higher = more cell death (loss of membrane integrity), active = 2 or more; details: 1 µM; 48 h
reported metric: CellTox Green cytotoxicity fluorescence
Give only the figure.

Study these solved cases before continuing.
[
  {
    "molecule": "CCOC(=O)c1[nH]c2cc(Cl)ccc2c1C(C(=O)NC(C)(C)C)N(C=O)Cc1ccc(Cl)cc1 (configuration not stated)",
    "CellTox Green cytotoxicity fluorescence": 0.971
  },
  {
    "molecule": "COc1cccc(-n2c(=O)[nH]c3cc(Cl)n(-c4ccc(-c5cccc(OC)c5O)cc4)c3c2=O)c1",
    "CellTox Green cytotoxicity fluorescence": 0.91
  },
  {
    "molecule": "Cc1c(C(=O)Nc2ccc(Oc3ccnc4[nH]cc(-c5ccccc5)c34)c(F)c2)c(=O)n(-c2ccc(F)cc2)n1C",
    "CellTox Green cytotoxicity fluorescence": 0.814
  },
  {
    "molecule": "CCO[C@@H]1OC(=O)C[C@@H]1NC(=O)[C@@H]1CCCN1C(=O)[C@@H](NC(=O)c1ccc(N)c(Cl)c1)C(C)(C)C",
    "CellTox Green cytotoxicity fluorescence": 1.02
  },
  {
    "molecule": "C=CC(=O)N1CCC(Oc2cc3c(Nc4ccc(Cl)c(Cl)c4F)ncnc3cc2OC)CC1",
    "CellTox Green cytotoxicity fluorescence": 1
  }
]

[in] Supply reported CellTox Green cytotoxicity fluorescence belonging to this molecule: `CC(=NNC(=S)N1CCC1)c1ccccn1`
[out] 1.25

[in] Report CellTox Green cytotoxicity fluorescence, nothing else, for this molecule: `CNC(=O)c1ccccc1Nc1cc(Nc2ccc(N3CCOCC3)cc2OC)ncc1C(F)(F)F`
[out] 1.03

[in] Could you please provide reported CellTox Green cytotoxicity fluorescence for `C=CC(=O)N1CC(=Cc2ccc([N+](=O)[O-])cc2)C(=O)C(=Cc2ccc([N+](=O)[O-])cc2)C1` ? Thanks!
[out] 1.78

[in] Please indicate CellTox Green cytotoxicity fluorescence recorded for CCCCC(C=O)NC(=O)C(CC(C)C)NC(=O)C(CC(C)C)NC(C)=O (configuration not stated)
[out] 1.11

[in] Check the records and state CellTox Green cytotoxicity fluorescence for O=C1CCC(N2C(=O)c3ccccc3C2=O)C(=O)N1 (configuration not stated) [Thalidomide]
[out] 0.981

[in] Please supply the value of reported CellTox Green cytotoxicity fluorescence for the item `FC(F)(F)c1ccc(CNc2ccc(Cc3c[nH]c4ncc(Cl)cc34)cn2)cn1`
[out] 1.12

[in] Specify measured CellTox Green cytotoxicity fluorescence for `Cc1nn(C)c(COc2ccc(N3CCN(S(=O)(=O)N(C)C)CC3)cc2)c1-c1cccc2c(CCCOc3cccc4ccccc34)c(C(=O)O)n(CCN3CCOCC3)c12` .
[out] 1.03

[in] Hello, please tell me recorded CellTox Green cytotoxicity fluorescence for this one: `CCCCNc1ncc2c(-c3ccc(CN4CCN(C)CC4)cc3)cn([C@H]3CC[C@H](O)CC3)c2n1`
[out] 1.62

[in] Give a short answer stating reported CellTox Green cytotoxicity fluorescence for `CC(C)(C)C[C@@H]1N[C@@H](C(=O)N[C@H]2CC[C@H](O)CC2)[C@H](c2cccc(Cl)c2F)[C@]12C(=O)Nc1cc(Cl)ccc12` .
[out] 1.02

[in] Look up and report measured CellTox Green cytotoxicity fluorescence for this entry: `NS(=O)(=O)C#Cc1ccccc1`
[out] 0.985

[in] Supply CellTox Green cytotoxicity fluorescence value. Item: `O=C1C(=O)N(Cc2ccc(Cl)c(Cl)c2)c2ccccc21`
[out] 1.04
